Attribution: ChEMBL document CHEMBL1201862

# tgt: Endoribonuclease toxin MazF (Escherichia coli K-12, UniProt P0AE70)
# Sequence (P0AE70 whole entry): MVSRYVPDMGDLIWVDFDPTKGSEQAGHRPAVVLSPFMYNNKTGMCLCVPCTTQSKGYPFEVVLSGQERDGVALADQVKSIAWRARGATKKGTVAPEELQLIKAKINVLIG
# method description: MazF toxin RNase activators, dose response, biochemical, fluorescence, single-stranded RNA substrate, uHTS hits (AID 588481)
# Type: functional
Activity calls are given as the source filed them.
Would you kindly list EC50 for each of these molecules?

# input // lookup EC50 for `NC(=O)c1ccc(-n2nnnc2SCC(=O)Nc2ccccc2F)cc1`
# output > 99 µM (inactive)

# input Recorded EC50 of `Cc1ccc(/C=C2\SC(=S)N(CCC(=O)Nc3cccnc3)C2=O)cc1` , please.
# output > 99 µM (inactive)

# input Please look up its EC50: `Nc1c(C(=O)C2CC2)sc2nc(-c3cccs3)cc(C(F)(F)F)c12`
# output > 99 µM (inactive)

# input Need EC50, item `O=C(Nc1ccc2oc(-c3ccc4ccccc4c3)nc2c1)c1cccs1`
# output > 99 µM (inactive)

# input Can you look up the measured EC50 of `Cc1ccc(C=C2C(=O)c3ccccc3C2=O)o1` for me?
# output > 99 µM (inactive)

# input Fill in the blank: the reported EC50 of `O=C1C(=Cc2cccn2-c2ccc(O)cc2)C(=O)c2ccccc21` is ____.
# output > 99 µM (inactive)

----------
# tgt: Estrogen receptor beta (Homo sapiens, UniProt Q92731)
# Sequence (Q92731 whole entry): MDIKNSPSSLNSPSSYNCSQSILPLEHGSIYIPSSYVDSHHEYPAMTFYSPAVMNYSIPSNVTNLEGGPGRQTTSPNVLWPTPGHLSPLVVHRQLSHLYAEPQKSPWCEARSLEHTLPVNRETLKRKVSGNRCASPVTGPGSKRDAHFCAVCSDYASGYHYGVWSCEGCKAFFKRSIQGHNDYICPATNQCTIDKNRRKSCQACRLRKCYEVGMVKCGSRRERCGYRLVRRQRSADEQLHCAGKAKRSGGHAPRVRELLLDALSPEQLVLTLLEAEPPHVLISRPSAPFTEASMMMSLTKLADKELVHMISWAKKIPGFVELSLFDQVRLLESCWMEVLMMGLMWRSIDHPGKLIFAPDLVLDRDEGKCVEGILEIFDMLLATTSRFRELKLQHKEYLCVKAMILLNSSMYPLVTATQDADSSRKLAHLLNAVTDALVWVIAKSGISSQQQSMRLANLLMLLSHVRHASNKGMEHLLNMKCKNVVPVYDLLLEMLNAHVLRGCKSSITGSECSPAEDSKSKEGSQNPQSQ
# method description: ERβ–SRC-3 coactivator interaction inhibitors, confirmation, orthogonal assay, biochemical, ELISA, streptavidin-HRP readout (AID 1060)
outcome measure: IC50

# input Reported IC50 for `Cc1nc(C)c(C(=O)Nc2nc3c(C)cccc3s2)o1` : what is it?
# output 0.588 µM (not active)

# input Form field: reported IC50 of `O=C(Nc1ccc2c(c1)OCO2)c1cc2ncc(Br)cn2n1`
# output < 0.023 µM (not active)

# input Param item = `CN1CCN(c2ccc(N)cc2)CC1` ; retrieve measured IC50.
# output 7.13 µM (not active)

# input Param item = `COC(=O)c1ccccc1NC(=O)c1noc2c1CCC2` ; retrieve measured IC50.
# output 9.45 µM (not active)

----------
# method description: microbe, parasite or virus in culture
# Type: functional
# experimental context: Mycobacterium tuberculosis
The source made the active and inactive calls.
outcome measure: CC50

# input Tell me the measured CC50 of `O=C1CC(=C(c2ccccc2)c2ccccc2)C(=O)N1CCCCN1CCN(c2ccccc2)CC1` , please.
# output > 40 µM (active)

# input Quick one: CC50 for `CCCCC(=O)Nc1sc2c(c1C(=O)OCC)CCC(C=O)=C2Cl` ?
# output > 40 µM (active)

# input Any idea what CC50 was measured for `CCOC(=O)C1(CCOc2ccccc2)CCN(Cc2cccc(-n3cccn3)c2)CC1` ?
# output > 40 µM (active)

# input Quick check: CC50 of COc1cccc(C2C3=C(N=c4s/c(=C\c5cccc(O)c5)c(=O)n42)c2ccccc2CC3)c1OC (stereo not given) ?
# output 32.5 µM (active)

# input Quick check: CC50 of `COc1ccc(NS(=O)(=O)c2ccc3[nH]c(COc4cccc5ccccc45)nc3c2)cc1` ?
# output 32.6 µM (active)
